This collection of values is drawn from paper PMC12444563.

Record form. Attribute: % residual compound, % R3. Fill in for each entry.
Target System: bovine spleen Cathepsin B (Bos taurus)
Construct: bovine spleen Cathepsin B (SigmaAldrich C6286, ≥10 units/mg protein); purchased SigmaAldrich C6286; host or cells: bovine spleen (tissue-derived)
Assay Name: Cathepsin B cleavage assay (UHPLC-HRMS Orbitrap analysis)
Type: biochemical
Details: replicate R3, 30 min
Starred links: 1 amine or outer side, 2 acyl side, 3 side chain; linkers in the order of their positions; H or OH if unused. Non-standard residues stand in square brackets, D forms with d. Residues, ends and D or L forms follow the SMILES beside them. *: point of attachment. Paclitaxel(2'-OCO-DMEDA) = CC(=O)O[C@H]1C(=O)[C@@]2(C)[C@H]([C@H](OC(=O)c3ccccc3)[C@]3(O)C[C@H](OC(=O)[C@H](OC(=O)N(C)CCN(C)*)[C@@H](NC(=O)c4ccccc4)c4ccccc4)C(C)=C1C3(C)C)[C@]1(OC(C)=O)CO[C@@H]1C[C@@H]2O; Fmoc = O=C(OCC1c2ccccc2-c2ccccc21)*; PABC = O=C(OCc1ccc(N[*:1])cc1)[*:2]
Remember to follow the number with its unit.

Solved cases below.
CC(=O)O[C@H]1C(=O)[C@@]2(C)[C@H]([C@H](OC(=O)c3ccccc3)[C@]3(O)C[C@H](OC(=O)[C@H](OC(=O)N(C)CCN(C)C(=O)OCc4ccc(NC(=O)[C@H](CCCNC(N)=O)NC(=O)[C@@H](NC(=O)OCC5c6ccccc6-c6ccccc65)C(C)C)cc4)[C@@H](NC(=O)c4ccccc4)c4ccccc4)C(C)=C1C3(C)C)[C@]1(OC(C)=O)CO[C@@H]1C[C@@H]2O; 97.99%
CC(=O)O[C@H]1C(=O)[C@@]2(C)[C@H]([C@H](OC(=O)c3ccccc3)[C@]3(O)C[C@H](OC(=O)[C@H](OC(=O)N(C)CCN(C)C(=O)OCc4ccc(NC(=O)[C@H](C)NC(=O)[C@@H](NC(=O)OCC5c6ccccc6-c6ccccc65)C(C)C)cc4)[C@@H](NC(=O)c4ccccc4)c4ccccc4)C(C)=C1C3(C)C)[C@]1(OC(C)=O)CO[C@@H]1C[C@@H]2O; 80.54%
CC(=O)O[C@H]1C(=O)[C@@]2(C)[C@H]([C@H](OC(=O)c3ccccc3)[C@]3(O)C[C@H](OC(=O)[C@H](OC(=O)N(C)CCN(C)C(=O)OCc4ccc(NC(=O)CNC(=O)[C@H](CC(C)C)NC(=O)[C@@H]5CCCN5C(=O)CNC(=O)OCC5c6ccccc6-c6ccccc65)cc4)[C@@H](NC(=O)c4ccccc4)c4ccccc4)C(C)=C1C3(C)C)[C@]1(OC(C)=O)CO[C@@H]1C[C@@H]2O [Compound 1, Fmoc-GPLG-PABC-diamine-PTX] (Fmoc-GPLG[PABC]-{Paclitaxel(2'-OCO-DMEDA)}); 74.08%

Incoming: Could you tell me which % residual compound, % R3 is on file for CC(=O)O[C@H]1C(=O)[C@@]2(C)[C@H]([C@H](OC(=O)c3ccccc3)[C@]3(O)C[C@H](OC(=O)[C@H](OC(=O)N(C)CCN(C)C(=O)OCc4ccc(NC(=O)CNC(=O)[C@H](CC(C)C)NC(=O)[C@H](Cc5ccccc5)NC(=O)CNC(=O)OCC5c6ccccc6-c6ccccc65)cc4)[C@@H](NC(=O)c4ccccc4)c4ccccc4)C(C)=C1C3(C)C)[C@]1(OC(C)=O)CO[C@@H]1C[C@@H]2O [Compound 2, Fmoc-GFLG-PABC-diamine-PTX] (Fmoc-GFLG[PABC]-{Paclitaxel(2'-OCO-DMEDA)}) ?
Outgoing: 95.37%
